Origin of the recorded values: patent US20250171438A1

target_entity: human PAH with the R408W mutation (Homo sapiens, UniProt P00439, R408W)
Construct: expressed in transfected cells
protocol_summary: Cell Based Phenylalanine Flux Assay
study_conditions: A375 cells expressing human R408W PAH; 24 hrs with compound; 13C-Tyrosine by LC-MS; average where tested multiple times; read-out: AC50
experimental_endpoint: AC50

Below are worked cases with known answers.
// assay human PAH with the R408W mutation (Homo sapiens, UniProt P00439, R408W), entry O=C(Cc1ccc(F)cc1)N1CCc2[nH]cnc2[C@H]1c1nc2ccccc2[nH]1 , AC50 value = 1 to 5 µM

Assay human PAH with the R408W mutation (Homo sapiens, UniProt P00439, R408W), sample c1ccc2sc(C3c4nc[nH]c4CCN3c3nnc(C4CC4)o3)nc2c1 (centres unmarked) , AC50 read: 1 to 5 µM

AC50 for human PAH with the R408W mutation (Homo sapiens, UniProt P00439, R408W) with input O=C(c1ccon1)N1CCc2[nH]cnc2C1c1nc2ccc(F)cc2[nH]1 (centres unmarked) equals 1 to 5 µM

Record O=C(C1CC1(F)F)N1CCc2[nH]cnc2C1c1nc2c(F)cccc2s1 (centres unmarked) / human PAH with the R408W mutation (Homo sapiens, UniProt P00439, R408W), AC50 recorded as 1 to 5 µM

Turning now to a further record.
# lookup: Cc1nc(N2CCN(C)CC2)oc1C(=O)N1CCc2[nH]cnc2C1c1nc2c(F)cccc2s1 (centres unmarked) on human PAH with the R408W mutation (Homo sapiens, UniProt P00439, R408W), AC50 = > 5 µM

====

Below, each entry is listed with its recorded AC50.
target_entity: human PAH with the R408W mutation (Homo sapiens, UniProt P00439, R408W)
Construct: expressed in transfected cells
protocol_summary: Cell Based Phenylalanine Flux Assay
study_conditions: A375 cells expressing human R408W PAH; 24 hrs compound incubation; 13C-Tyrosine by LC-MS; average where tested multiple times; read-out: AC50

The examples below pair each entry with its known result.
AC50 reading for O=C(c1cnn(C2CC2)c1C(F)F)N1CCc2[nH]cnc2[C@@H]1c1nc2c(F)cccc2s1 : 1000 to 5000 nM

So, O=C(c1cnc(-c2ccc(F)cn2)s1)N1CCc2[nH]cnc2[C@@H]1c1nc2ccccc2s1 ? Its AC50 was 1000 to 5000 nM

Quick note, AC50 for CC(C)(O)c1c(Br)ccc2c(C(=O)N3CCc4[nH]cnc4[C@H]3c3nc4ccccc4s3)cnn12 landed at < 500 nM

For record Fc1ccc(-c2nnc(N3CCc4[nH]cnc4[C@H]3c3nc4ccccc4s3)o2)cc1 the listed AC50 is < 500 nM

Lab note: measured AC50 of O=C(c1nnc(-n2cccn2)o1)N1CCc2[nH]cnc2[C@@H]1c1nc2ccccc2s1 was 1000 to 5000 nM

// AC50 value for C[C@H]1CN(C(=O)c2ocnc2C2CC2)[C@H](c2nc3c(F)cccc3s2)c2nc[nH]c21 : 500 to 1000 nM

According to the records, this compound N#Cc1nc(N2CCC(F)CC2)oc1C(=O)N1CCc2[nH]cnc2[C@@H]1c1nc2ccccc2s1 displays AC50 of > 5000 nM

Field AC50 (entry O=C(c1cn(CC(F)(F)F)nc1Cl)N1CCc2[nH]cnc2[C@H]1c1nc2c(F)cccc2s1 ) reads 500 to 1000 nM

Next:
The reported AC50 of the compound O=C(c1cn[nH]c1C(F)F)N1CCc2[nH]cnc2[C@H]1c1nc2ccccc2s1 was < 500 nM

Given item CC(C)(F)c1ccc2c(C(=O)N3CCc4[nH]cnc4[C@H]3c3nc4ccccc4s3)cnn2c1 , the value recorded as its AC50 is < 500 nM

O=C(CC1CC1)N1CCc2[nH]cnc2[C@H]1c1nc2ccc(F)cc2s1 yielded AC50 of < 500 nM

Cn1cc(C(=O)N2CCc3[nH]cnc3[C@H]2c2nc3c(F)cccc3s2)c(C(F)F)n1 yielded AC50 of < 500 nM

response.value for CCn1cnnc1C(=O)N1CCc2[nH]cnc2[C@H]1c1nc2c(F)cccc2s1 (field: AC50) = 500 to 1000 nM

Query CC(C)(O)c1ncc(C(=O)N2CCc3[nH]cnc3[C@@H]2c2nc3ccccc3s2)s1 yields AC50 of 1000 to 5000 nM

The reported AC50 of the compound O=C(c1cnn2ccc(Br)cc12)N1CCc2[nH]cnc2[C@H]1c1nc2ccc(Br)cc2[nH]1 was 1000 to 5000 nM

AC50 measured on O=C(c1cnc(C(F)(F)F)s1)N1CCc2[nH]cnc2[C@H]1c1nc2ccccc2s1 = 500 to 1000 nM

====

target_entity: human PAH with the R408W mutation (Homo sapiens, UniProt P00439, R408W)
Construct: expressed in transfected cells
protocol_summary: Cell Based Phenylalanine Flux Assay
study_conditions: A375 cells expressing human R408W PAH; 24 hrs compound incubation; 13C-Tyrosine by LC-MS; average where tested multiple times; read-out: AC50
experimental_endpoint: AC50

For this compound ( CC(C)(O)/C=C/c1nc(C(F)(F)F)c(C(=O)N2CCc3[nH]cnc3[C@H]2c2nc3ccccc3s2)o1 ), measured AC50 is < 0.5 µM

# AC50 (compound: O=C(c1cnc(-c2cnn(CC(F)(F)F)c2)s1)N1CCc2[nH]cnc2[C@H]1c1nc2ccccc2s1 ) is < 0.5 µM

Looking up COCCc1nc(C)c(C(=O)N2CCc3[nH]cnc3[C@@H]2c2nc3ccccc3s2)o1 , I see its AC50 listed as > 5 µM

Lab note: measured AC50 of Cn1cc(-c2nc(C(F)F)c(C(=O)N3CCc4[nH]cnc4[C@H]3c3nc4ccccc4s3)o2)cn1 was < 0.5 µM

Others:
Quick note, AC50 for O=C(c1oc(C2CC2)nc1C(F)(F)F)N1CCc2[nH]cnc2[C@H]1c1nc2c(F)cccc2s1 landed at < 0.5 µM

Quick note, AC50 for COCCc1ccc2c(C(=O)N3CCc4[nH]cnc4[C@@H]3c3nc4ccccc4s3)c(C#N)nn2c1 landed at 1 to 5 µM

response.value for O=C(c1oc(/C=C/C2CC2)nc1C(F)(F)F)N1CCc2[nH]cnc2[C@@H]1c1nc2ccccc2s1 (field: AC50) = 1 to 5 µM

====

target_entity: human PAH with the R408W mutation (Homo sapiens, UniProt P00439, R408W)
Construct: expressed in transfected cells
Sequence (P00439 1-452 R408W): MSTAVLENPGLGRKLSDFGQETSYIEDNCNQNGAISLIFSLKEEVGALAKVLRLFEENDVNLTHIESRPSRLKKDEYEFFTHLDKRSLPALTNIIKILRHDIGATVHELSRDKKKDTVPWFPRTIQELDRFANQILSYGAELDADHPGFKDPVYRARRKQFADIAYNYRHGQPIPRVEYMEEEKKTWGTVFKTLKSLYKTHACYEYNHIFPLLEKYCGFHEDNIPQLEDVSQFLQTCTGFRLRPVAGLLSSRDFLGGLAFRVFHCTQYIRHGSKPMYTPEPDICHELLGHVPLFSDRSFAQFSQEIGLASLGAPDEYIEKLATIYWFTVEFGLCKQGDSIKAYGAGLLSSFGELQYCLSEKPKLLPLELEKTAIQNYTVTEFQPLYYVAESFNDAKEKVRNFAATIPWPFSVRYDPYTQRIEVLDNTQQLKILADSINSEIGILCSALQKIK
protocol_summary: Cell Based Phenylalanine Flux Assay
study_conditions: A375 cells expressing human R408W PAH; 24 hrs with compound; 13C-Tyrosine by LC-MS; average where tested multiple times; read-out: AC50
Below, each of the compounds is paired with its reported AC50 value.

Some compounds with known AC50 results, for comparison:
Bench note, human PAH with the R408W mutation (Homo sapiens, UniProt P00439, R408W): entry Cc1nnc(N2CCc3[nH]cnc3C2c2nc3ccccc3[nH]2)o1 (stereo not drawn) , its AC50 = > 5 µM

Form field AC50 for item O=C(c1cnn2cc(F)ccc12)N1CCc2[nH]cnc2C1c1nc2ccc(F)cc2s1 (stereo not drawn) on human PAH with the R408W mutation (Homo sapiens, UniProt P00439, R408W): 1 to 5 µM

The observed AC50 for c1ccc2oc(N3CCc4[nH]cnc4C3c3nc4ccccc4s3)nc2c1 (stereo not drawn) when tested with human PAH with the R408W mutation (Homo sapiens, UniProt P00439, R408W) stands at 1 to 5 µM

Further cases:
// AC50 (human PAH with the R408W mutation (Homo sapiens, UniProt P00439, R408W)) for CC(C)(O)c1cc(C(=O)N2CCc3[nH]cnc3C2c2nc3c(F)cccc3s2)sn1 (stereo not drawn) = 1 to 5 µM

# AC50 measured on human PAH with the R408W mutation (Homo sapiens, UniProt P00439, R408W) for item Cc1ncc(C(=O)N2CCc3[nH]cnc3C2c2nc3ccccc3s2)o1 (stereo not drawn) = > 5 µM

So the reported AC50 for O=C(Cc1cnco1)N1CCc2[nH]cnc2[C@@H]1c1nc2ccccc2s1 (single isomer, unassigned) , on human PAH with the R408W mutation (Homo sapiens, UniProt P00439, R408W), turned out to be > 5 µM

Tested system human PAH with the R408W mutation (Homo sapiens, UniProt P00439, R408W); AC50 recorded for O=C(c1ccn[nH]1)N1CCc2[nH]cnc2C1c1nc2ccccc2s1 (stereo not drawn) was > 5 µM

O=C(Cc1nncs1)N1CCc2[nH]cnc2[C@H]1c1nc2c(F)cccc2s1 (single isomer, unassigned) on human PAH with the R408W mutation (Homo sapiens, UniProt P00439, R408W) gives AC50 = 1 to 5 µM

Note to self: AC50 of Cc1nc(-c2ccccn2)oc1C(=O)N1CC(C)c2[nH]cnc2C1c1nc2ccccc2s1 (stereo not drawn) with human PAH with the R408W mutation (Homo sapiens, UniProt P00439, R408W) was > 5 µM
